pEC50 reference
Test system: HBV
Assay: Anti-HBV activity, HepG2.117 cell line (Tet-off), intracellular HBV DNA by realtime PCR
Format: cell-based, Hepatitis B virus
Details: Hepatitis B virus, HepG2.117, 72 h, HepG2.117 cells, 3 days of treatment
Friendly reminder that pEC50 comes from taking -log10 of the concentration in mol/L.

Below, 4 compounds whose answers are already recorded.
Cc1cc(NC(=O)c2ccc(S(=O)(=O)N[C@H]3CCOC3)s2)ccc1F = 6.03
Cc1cc(NC(=O)c2cc(S(=O)(=O)NC3(C(F)(F)F)CC3)sc2C)ccc1F = 7.40
Cc1sc(S(=O)(=O)NC2(C(F)(F)F)CCOC2)cc1C(=O)Nc1ccc(F)c(C#N)c1 (racemic) = 7.00
Cc1sc(S(=O)(=O)N[C@H](C)C(F)(F)F)cc1C(=O)Nc1ccc(F)c(C#N)c1 = 6.77

Recorded pEC50 of `Cc1cc(NC(=O)c2cc(S(=O)(=O)N[C@H]3CCOC3)c(C)s2)ccc1F` , please. 5.96

Query: pEC50; subject: `Cc1cc(NC(=O)c2cc(S(=O)(=O)N[C@H](C)C(F)(F)F)sc2C)ccc1F` 7.22

Which pEC50 value belongs to `Cc1cc(NC(=O)c2cc(S(=O)(=O)NC(C)(C)C)sc2C)cc(F)c1F` ? 7.49

----------
Test system: HepG2 cells
Experiment: Cytotoxicity in HepG2 cells, Resazurin assay
Assay type: cell-based
Conditions: incubated for 4 days, Resazurin viability
CC50 listing for selected compounds.

Cc1cc(NC(=O)c2cc(S(=O)(=O)NC3(C)CCOC3)sc2C)ccc1F (racemic) [Compound 16b] = > 25 µM

Please report the recorded CC50 for Cc1cc(NC(=O)c2cc(S(=O)(=O)NC3(C)CCOC3)sc2C)ccc1F (racemic) [Compound 16a] . > 25 µM

----------
Assay: Cytotoxicity in HepG2 cells, Resazurin assay
Type: cell-based
Settings: human, incubated for 4 days, Resazurin viability
endpoint_name: CC50 at 4 days

Cc1cc(NC(=O)c2csc(S(=O)(=O)N[C@H]3CCOC3)c2)ccc1F = > 25 µM
Cc1cc(NC(=O)c2cc(S(=O)(=O)NC3(C)COC3)sc2C)ccc1F = > 25 µM
Cc1sc(S(=O)(=O)NC(C)(C)C)cc1C(=O)Nc1ccc(F)c(F)c1 = 11.7 µM
Cc1cc(NC(=O)c2scc(S(=O)(=O)N[C@H]3CCOC3)c2C)ccc1F = > 25 µM
Cc1sc(S(=O)(=O)N[C@@H](C)C(C)(F)F)cc1C(=O)Nc1ccc(F)c(F)c1 = 14.3 µM

Which measured CC50 at 4 days value corresponds to `Cc1sc(S(=O)(=O)NC2(C(F)(F)F)CC2)cc1C(=O)Nc1ccc(F)c(F)c1` ? 17.7 µM

// returns reported CC50 at 4 days for input Cc1sc(S(=O)(=O)NC2(C(F)(F)F)CCOC2)cc1C(=O)Nc1cccc(C(F)(F)F)c1 (racemic) > 25 µM

I have this compound here, `Cc1cc(NC(=O)c2cc(S(=O)(=O)NC(C)(C)C(N)=O)sc2C)ccc1F` , and I need its recorded CC50 at 4 days. > 25 µM

// returns reported CC50 at 4 days for input `Cc1cc(NC(=O)c2cc(S(=O)(=O)N[C@H]3CCOC3)c(C)s2)ccc1F` > 25 µM

Quick check: CC50 at 4 days of `Cc1cc(NC(=O)c2cc(S(=O)(=O)N[C@H](C)C(F)(F)F)sc2C)ccc1F` ? > 25 µM

Suppose we examine the compound `Cc1sc(S(=O)(=O)NC(C)(C)C)cc1C(=O)Nc1ccc(F)c(Cl)c1` ; what CC50 at 4 days value has been reported? 11.5 µM

----------
Tested on: HBV
Experiment: Anti-HBV activity, HepG2.117 cell line (Tet-off), intracellular HBV DNA by realtime PCR
Assay type: cell-based, Hepatitis B virus
Conditions: Hepatitis B virus, HepG2.117, 72 h, HepG2.117 cells, 3 days of treatment
pEC50: −log10 of the molar value.
t means recorded pEC50 is 7 or above; f means it is below 7.

Could you tell me if the measured pEC50 of `Cc1cc(NC(=O)c2cc(S(=O)(=O)NC(C)(C)C)sc2C)ccc1F` reaches 7 or more? t

Kindly determine if pEC50 recorded for `Cc1sc(S(=O)(=O)NC(C)(C)C(N)=O)cc1C(=O)Nc1ccc(F)c(F)c1` is above or exactly 7. f

Please check the record `Cc1sc(S(=O)(=O)N[C@@H](C)C(F)(F)F)cc1C(=O)Nc1ccc(F)c(C#N)c1` and state if its pEC50 is at or above 7. f

Please indicate if the recorded pEC50 for `Cc1cc(NC(=O)c2cc(S(=O)(=O)N[C@H](C)CO)sc2Cl)ccc1F` meets or exceeds 7. f

Could you verify whether the entry `Cc1sc(S(=O)(=O)NC(CF)CF)cc1C(=O)Nc1ccc(F)c(C#N)c1` shows pEC50 of no less than 7? f

Does pEC50 meet or surpass 7 for `Cc1sc(S(=O)(=O)NC(C)(C)C)cc1C(=O)Nc1ccc(F)c(Cl)c1` ? t

----------
Experiment: Cytotoxicity in HepG2 cells, Resazurin assay
Type: cell-based
Conditions: human, incubated for 4 days, Resazurin viability
endpoint_name: CC50 at 4 days

Returns the measured CC50 at 4 days for the input compound. Input: `Cc1sc(S(=O)(=O)NC2(C)COC2)cc1C(=O)Nc1ccc(F)c(Cl)c1` > 25 µM

----------
System: HBV
Test: Anti-HBV activity, HepG2.117 cell line (Tet-off), intracellular HBV DNA by realtime PCR
Type: cell-based, Hepatitis B virus
Settings: Hepatitis B virus, HepG2.117, 72 h, HepG2.117 cells, 3 days of treatment
endpoint_name: pEC50
To interpret pEC50, take it as minus log10 of a concentration measured in moles per litre.

CCc1sc(S(=O)(=O)N[C@H]2CCOC2)cc1C(=O)Nc1ccc(F)c(C)c1 [Compound 14] = 6.89
Cc1sc(S(=O)(=O)NC(C)(C)C)cc1C(=O)Nc1ccc(F)c(C#N)c1 [Compound 24] = 6.82
Cc1sc(S(=O)(=O)N[C@H](C)C(F)(F)F)cc1C(=O)Nc1ccc(F)c(Cl)c1 [Compound 38] = 7.10
Cc1sc(S(=O)(=O)N[C@H](C)C(F)(F)F)cc1C(=O)Nc1cc(F)c(F)c(Cl)c1 [Compound 36] = 6.80
Cc1cc(NC(=O)c2cc(S(=O)(=O)N[C@H]3CCOC3)sc2C)ccc1F [Compound 7] = 6.80
Cc1sc(S(=O)(=O)NC(C)(C)C)cc1C(=O)Nc1ccc(F)c(Br)c1 [Compound 27] = 7.05

Shift focus to the following entry.
Fill blank: measured pEC50 of the molecule Cc1sc(S(=O)(=O)NC(C)(C)C)cc1C(=O)Nc1cc(F)c(F)c(Cl)c1 [Compound 20] is ____. 6.96

----------
Experiment: Cytotoxicity in HepG2 cells, Resazurin assay
Type: cell-based
Conditions: human, incubated for 4 days, Resazurin viability
endpoint_name: CC50 at 4 days

Cc1sc(S(=O)(=O)NC2(C(F)(F)F)CCOC2)cc1C(=O)Nc1ccc(F)c(F)c1 (centres unmarked) = > 25 µM

What does the data say about its CC50 at 4 days? Entry: `Cc1sc(S(=O)(=O)NC(C)(C)C(F)(F)F)cc1C(=O)Nc1ccc(F)c(F)c1` > 25 µM

Which CC50 at 4 days value belongs to `Cc1sc(S(=O)(=O)N[C@H](C)C(F)(F)F)cc1C(=O)Nc1ccc(F)c(F)c1` ? 14.9 µM

Find the recorded CC50 at 4 days belonging to `COC(=O)C(C)(C)NS(=O)(=O)c1cc(C(=O)Nc2ccc(F)c(C)c2)c(C)s1` and report it. > 25 µM

For `Cc1sc(S(=O)(=O)N[C@H](C)C(F)(F)F)cc1C(=O)Nc1cc(F)c(F)c(Cl)c1` , what is its reported CC50 at 4 days? 7.1 µM

// CC50 at 4 days lookup, key: `Cc1cc(NC(=O)c2scc(S(=O)(=O)NC3(C)COC3)c2C)ccc1F` > 25 µM

Which CC50 at 4 days is reported for this compound? `Cc1sc(S(=O)(=O)NC2(C)COC2)cc1C(=O)Nc1cc(F)c(F)c(Cl)c1` > 25 µM

----------
Assay: Cytotoxicity in HepG2 cells, Resazurin assay
Format: cell-based
Settings: human, incubated for 4 days, Resazurin viability
endpoint_name: CC50 at 4 days

Cc1sc(S(=O)(=O)NC(C)(C)C(F)(F)F)cc1C(=O)Nc1cc(F)c(F)c(Cl)c1 = > 25 µM
Cc1cc(NC(=O)c2ccc(S(=O)(=O)N[C@H]3CCOC3)s2)ccc1F = > 25 µM
Cc1cc(NC(=O)c2cc(S(=O)(=O)NC3(C)COC3)c(C)s2)ccc1F = > 25 µM

Which value of CC50 at 4 days has been reported for `Cc1sc(S(=O)(=O)N[C@@H](C)C(F)(F)F)cc1C(=O)Nc1ccc(F)c(C#N)c1` in the records? > 25 µM

Reference source for all entries: patent US10160743B2
